Target: human recombinant furin (Homo sapiens, UniProt P09958)
Construct: Soluble human recombinant furin was kindly gifted; gift of Dr Anna Kwiatkowska (group of Prof. Robert Day, Université de Sherbrooke)
Sequence (P09958 108-715 limits assumed): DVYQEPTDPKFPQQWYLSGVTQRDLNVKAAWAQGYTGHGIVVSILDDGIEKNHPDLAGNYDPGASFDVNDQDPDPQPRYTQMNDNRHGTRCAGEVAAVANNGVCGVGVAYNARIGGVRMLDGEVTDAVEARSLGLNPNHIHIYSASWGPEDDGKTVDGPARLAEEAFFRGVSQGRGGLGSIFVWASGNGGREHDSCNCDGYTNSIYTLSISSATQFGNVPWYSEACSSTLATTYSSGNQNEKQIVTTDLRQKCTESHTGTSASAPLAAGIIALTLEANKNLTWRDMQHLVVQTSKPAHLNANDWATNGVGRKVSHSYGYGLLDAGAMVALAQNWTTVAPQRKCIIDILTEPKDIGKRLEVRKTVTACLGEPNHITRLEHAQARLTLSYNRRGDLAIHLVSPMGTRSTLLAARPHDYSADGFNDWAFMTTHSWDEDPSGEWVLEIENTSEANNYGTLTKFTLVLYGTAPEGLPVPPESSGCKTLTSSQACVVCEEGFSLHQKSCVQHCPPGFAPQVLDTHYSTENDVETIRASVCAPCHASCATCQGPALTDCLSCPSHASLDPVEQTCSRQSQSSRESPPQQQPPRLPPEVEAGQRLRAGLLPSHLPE
Details: ± SEM; Cheng-Prusoff from IC50, competitive mode assumed, Km 1.90 µM
Bridge positions count the residues as written; N and C are the ends. Peptide text beside a SMILES is read from it.
Readout: Ki (nM)
# output: bare number, implied unit nM

What value of Ki has been reported for the following compound? CC[C@H](C)[C@@H]1NC(=O)[C@@H]2CCCN2C(=O)[C@@H]2CCCN2C(=O)[C@H]([C@@H](C)CC)NC(=O)[C@H](CO)NC(=O)[C@H](CCCCN)NC(=O)[C@H](CCCCN)NC(=O)[C@@H]2CSSC[C@H](NC1=O)C(=O)N[C@@H](Cc1ccccc1)C(=O)N[C@@H](CCCNC(=N)N)C(=O)N[C@@H](CCCNC(=N)N)C(=O)N[C@@H](CCCNC(=N)N)C(=O)N2 [inhibitor 6] (cyclo(RRRCKKSIPPICF); disulfide 4-12)
0.25

Value lookup for Ki; key = CC[C@H](C)[C@@H]1NC(=O)[C@@H]2CCCN2C(=O)[C@@H]2CCCN2C(=O)[C@H]([C@@H](C)CC)NC(=O)[C@H](CO)NC(=O)[C@H](CCCCN)NC(=O)[C@H](CCCCN)NC(=O)[C@@H](NC(=O)[C@H](CCCNC(=N)N)NC(=O)[C@H](CCCNC(=N)N)NC(=O)[C@@H](N)CCCNC(=N)N)CSSC[C@@H](C(=O)N[C@@H](Cc2ccccc2)C(N)=O)NC1=O [inhibitor 3] (H-RRRCKKSIPPICF-NH2; disulfide 4-12)
0.27

Give its Ki value. Item: CC[C@H](C)[C@@H]1NC(=O)[C@@H]2CCCN2C(=O)[C@@H]2CCCN2C(=O)[C@H]([C@@H](C)CC)NC(=O)[C@H](CO)NC(=O)[C@H](CCCCN)NC(=O)[C@H](CCCCN)NC(=O)[C@@H]2CSSC[C@H](NC1=O)C(=O)N[C@@H](Cc1ccccc1)C(=O)N[C@@H](CCCCN)C(=O)N[C@@H](CCCNC(=N)N)C(=O)N[C@@H](CCCNC(=N)N)C(=O)N2 [inhibitor 5] (cyclo(KRRCKKSIPPICF); disulfide 4-12)
0.21

So what does the record say about Ki for CC[C@H](C)[C@@H]1NC(=O)[C@@H]2CCCN2C(=O)[C@@H]2CCCN2C(=O)[C@H]([C@@H](C)CC)NC(=O)[C@H](CO)NC(=O)[C@H](CCCCN)NC(=O)[C@H](CCCCN)NC(=O)[C@@H](NC(=O)[C@H](CCCNC(=N)N)NC(=O)[C@@H](N)CCCCN)CSSC[C@@H](C(=O)N[C@@H](Cc2ccccc2)C(N)=O)NC1=O [FI, reference compound] (H-KRCKKSIPPICF-NH2; disulfide 3-11; N-terminus assumed) ?
0.38
